target: Mdm2/p53 binding (GST-Mdm2 / His-p53) (Homo sapiens, UniProt Q00987, L33E); construct: Mdm2 partial protein having Mdm2 amino acids at positions 25 to 108; experiment: Mdm2/p53 binding assay (HTRF, His-p53 and GST-Mdm2); details: His-p53 (aa 1-132) and GST-Mdm2 (aa 25-108, L33E) 6.25 nM each; 25°C, 1 hour; values given as ranges
Sequence (Q00987 25-108 L33E): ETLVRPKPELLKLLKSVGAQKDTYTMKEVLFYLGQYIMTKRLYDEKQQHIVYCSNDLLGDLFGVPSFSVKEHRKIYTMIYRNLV
pIC50: −log10 of the molar value.

COMPOUND	pIC50
CC1(C)CCC2(CC1)N[C@@H](C(=O)N[C@H]1CC[C@@](O)(CO)CC1)[C@H](c1ccnc(Cl)c1F)[C@]21C(=O)Nc2cc(Cl)ccc21	7.30 to 9.00
O=C(N[C@H]1CC[C@H](c2nnco2)CC1)[C@@H]1NC2(CC(CF)(CF)C2)[C@@]2(C(=O)Nc3cc(Cl)ccc32)[C@H]1c1ccnc(Cl)c1F	7.00 to 7.30
CC1(C)CCC2(CC1)N[C@@H](C(=O)N[C@H]1CC[C@H](c3nnco3)CC1)[C@H](c1cccc(Cl)c1F)[C@]21C(=O)Nc2nc(Cl)ccc21 (relative stereo)	7.00 to 7.30
O=C(N[C@H]1CC[C@H](O)CC1)[C@@H]1NC2(CCCCC2)[C@@]2(C(=O)Nc3cc(Cl)ccc32)[C@H]1c1cccc(Cl)c1F (relative stereo)	6.30 to 7.00
CC1(C)CCC2(CC1)N[C@@H](C(=O)N[C@@H]1CC[C@@H](C(N)=O)OC1)[C@H](c1ccnc(Cl)c1F)[C@]21C(=O)Nc2nc(Cl)ccc21	7.30 to 9.00

* * *

biological target: Mdm2/p53 binding (GST-Mdm2 / His-p53) (Homo sapiens, UniProt Q00987, L33E); construct: Mdm2 partial protein having Mdm2 amino acids at positions 25 to 108; assay: Mdm2/p53 binding assay (HTRF, His-p53 and GST-Mdm2); conditions: His-p53 (aa 1-132) and GST-Mdm2 (aa 25-108, L33E) 6.25 nM each; 25°C, 1 hour; values given as ranges
pIC50: −log10 of the molar value.

MOLECULE	pIC50
CC1(C)CCC2(CC1)N[C@@H](C(=O)N[C@H]1CC[C@H](c3nnco3)CC1)[C@H](c1ccnc(Cl)c1)[C@]21C(=O)Nc2cc(Cl)ccc21 [Example 54]	7.00 to 7.30
CO[C@H]1C[C@@H](NC(=O)[C@@H]2NC3(CCC(C)(C)CC3)[C@@]3(C(=O)Nc4nc(Cl)ccc43)[C@H]2c2cccc(Cl)c2F)CO[C@@H]1CO [Example 58]	7.00 to 7.30
CC1(C)CCC2(CC1)N[C@@H](C(=O)N[C@H]1CC[C@H](C(N)=O)CC1)[C@H](c1ccnc(Cl)c1F)[C@]21C(=O)Nc2cc(Cl)ccc21 [Example 67]	7.30 to 9.00
CO[C@H]1C[C@@H](NC(=O)[C@@H]2NC3(CCC(C)(C)CC3)[C@@]3(C(=O)Nc4cc(Cl)ccc43)[C@H]2c2ccnc(Cl)c2F)CO[C@@H]1CO [Example 45]	7.00 to 7.30
CC1(C)CCC2(CC1)N[C@@H](C(=O)N[C@H]1CC[C@H](c3nnc[nH]3)CC1)[C@H](c1ccnc(Cl)c1F)[C@]21C(=O)Nc2cc(Cl)ccc21 (relative stereo) [Example 32]	7.00 to 7.30

* * *

molecular target: Mdm2/p53 binding (GST-Mdm2 / His-p53) (Homo sapiens, UniProt Q00987, L33E); construct: Mdm2 partial protein having Mdm2 amino acids at positions 25 to 108; experiment: Mdm2/p53 binding assay (HTRF, His-p53 and GST-Mdm2); conditions: His-p53 (aa 1-132) and GST-Mdm2 (aa 25-108, L33E) 6.25 nM each; 25°C, 1 hour; values given as ranges
pIC50: −log10 of the molar value.
pIC50 overview

MOLECULE	pIC50
CNC(=O)C[C@@H]1CC[C@@H](NC(=O)[C@@H]2NC3(CC(CF)(CF)C3)[C@@]3(C(=O)Nc4cc(Cl)ccc43)[C@H]2c2cccc(Cl)c2F)CO1 [Example 151]	7.30 to 9.00
CC1(C)CCC2(CC1)N[C@@H](C(=O)N[C@H]1CC[C@H](c3noc(=O)[nH]3)CC1)[C@H](c1ccnc(Cl)c1F)[C@]21C(=O)Nc2cc(Cl)ccc21 [Example 41]	7.30 to 9.00
COC(=O)[C@@H]1CC[C@@H](NC(=O)[C@@H]2NC3(CCC(C)(C)CC3)[C@@]3(C(=O)Nc4cc(Cl)ccc43)[C@H]2c2ccnc(Cl)c2F)CO1 [Example 173]	7.00 to 7.30
CN(C)C(=O)C[C@@H]1CC[C@@H](NC(=O)[C@@H]2NC3(CC(CF)(CF)C3)[C@@]3(C(=O)Nc4cc(Cl)ccc43)[C@H]2c2cccc(Cl)c2F)CO1 [Example 153]	7.30 to 9.00
CC1(C)CCC2(CC1)N[C@@H](C(=O)N[C@@H]1CC[C@@H](C(N)=O)OC1)[C@H](c1cccc(Cl)c1F)[C@]21C(=O)Nc2cc(Cl)ccc21 [Example 181]	7.30 to 9.00

* * *

target: Mdm2/p53 binding (GST-Mdm2 / His-p53) (Homo sapiens, UniProt Q00987, L33E); construct: Mdm2 partial protein having Mdm2 amino acids at positions 25 to 108; assay: Mdm2/p53 binding assay (HTRF, His-p53 and GST-Mdm2); conditions: His-p53 (aa 1-132) and GST-Mdm2 (aa 25-108, L33E) 6.25 nM each; 25°C, 1 hour; values given as ranges
IC50 overview
ENDPOINT_LABEL: IC50

COMPOUND	TEST_RESULT
CC1(C)CCC2(CC1)N[C@@H](C(=O)NC1CCN(c3nnn[nH]3)CC1)[C@H](c1ccnc(Cl)c1F)[C@]21C(=O)Nc2cc(Cl)ccc21	1 to 50 nM
CC1(C)CCC2(CC1)N[C@@H](C(=O)N[C@H]1CC[C@H](c3nnco3)CC1)[C@H](c1ccnc(Cl)c1F)[C@]21C(=O)Nc2cc(Cl)ncc21 (relative stereo)	50 to 100 nM
CC1(C)CCC2(CC1)N[C@@H](C(=O)N[C@@H]1CC[C@@H](c3ncon3)OC1)[C@H](c1ccnc(Cl)c1F)[C@]21C(=O)Nc2nc(Cl)ccc21	50 to 100 nM
CC1(C)CCC2(CC1)N[C@@H](C(=O)N[C@@H]1CC[C@@H](C(=O)NCCO)OC1)[C@H](c1ccnc(Cl)c1F)[C@]21C(=O)Nc2cc(Cl)ccc21	1 to 50 nM
O=C(NC1CCOCC1)[C@@H]1CC[C@@H](NC(=O)[C@@H]2NC3(CC(CF)(CF)C3)[C@@]3(C(=O)Nc4cc(Cl)ccc43)[C@H]2c2cccc(Cl)c2F)CO1	50 to 100 nM
O=C(N[C@@H]1CC[C@@H](CO)OC1)[C@@H]1NC2(CC(CF)(CF)C2)[C@@]2(C(=O)Nc3cc(Cl)ccc32)[C@H]1c1ccc(F)c(Cl)c1F	1 to 50 nM
CC1(C)CCC2(CC1)N[C@@H](C(=O)N[C@@H]1CC[C@@H](C(O)CO)OC1)[C@H](c1ccnc(Cl)c1F)[C@]21C(=O)Nc2cc(Cl)ccc21 (single isomer, unassigned)	1 to 50 nM
CC1(C)CCC2(CC1)N[C@@H](C(=O)N[C@H]1C[C@H](c3nnco3)C1)[C@H](c1ccnc(Cl)c1F)[C@]21C(=O)Nc2cc(Cl)ccc21	50 to 100 nM
CC1(C)CCC2(CC1)N[C@@H](C(=O)NC1CC3(C1)CC(CO)(CO)C3)[C@H](c1ccnc(Cl)c1F)[C@]21C(=O)Nc2cc(Cl)ccc21	50 to 100 nM
COCCNC(=O)[C@@H]1CC[C@@H](NC(=O)[C@@H]2NC3(CCC(C)(C)CC3)[C@@]3(C(=O)Nc4cc(Cl)ccc43)[C@H]2c2ccnc(Cl)c2F)CO1	1 to 50 nM
CC1(C)CCC2(CC1)N[C@@H](C(=O)N[C@@H]1CC[C@@H](C(=O)O)OC1)[C@H](c1ccnc(Cl)c1F)[C@]21C(=O)Nc2cc(Cl)ccc21	1 to 50 nM

* * *

target: Mdm2/p53 binding (GST-Mdm2 / His-p53) (Homo sapiens, UniProt Q00987, L33E); construct: Mdm2 partial protein having Mdm2 amino acids at positions 25 to 108; test: Mdm2/p53 binding assay (HTRF, His-p53 and GST-Mdm2); settings: His-p53 (aa 1-132) and GST-Mdm2 (aa 25-108, L33E) 6.25 nM each; 25°C, 1 hour; values given as ranges
IC50 overview
ENDPOINT_LABEL: IC50

COMPOUND	TEST_RESULT
CNC(=O)c1cc(Cl)cc([C@H]2[C@H](C(=O)N[C@H]3CC[C@H](O)CC3)NC3(CCC(C)(C)CC3)[C@@]23C(=O)Nc2cc(Cl)ccc23)c1 (relative stereo)	1 to 50 nM
CC1(C)CCC2(CC1)N[C@@H](C(=O)N[C@@H]1CC[C@@H](CO)OC1)[C@H](c1cccc(Cl)c1F)[C@]21C(=O)Nc2cc(Cl)ccc21	1 to 50 nM
C[C@@H](O)c1nnc([C@H]2CC[C@H](NC(=O)[C@@H]3NC4(CCC(C)(C)CC4)[C@@]4(C(=O)Nc5cc(Cl)ccc54)[C@H]3c3ccnc(Cl)c3F)CC2)o1	50 to 100 nM
CO[C@]1(CO)CC[C@H](NC(=O)[C@@H]2NC3(CCC(C)(C)CC3)[C@@]3(C(=O)Nc4cc(Cl)ccc43)[C@H]2c2cccc(Cl)c2F)CC1	50 to 100 nM
CC1(C)CCC2(CC1)N[C@@H](C(=O)N[C@H]1CC[C@H](O)CC1)[C@H](c1cc(N)cc(Cl)c1)[C@]21C(=O)Nc2cc(Cl)ccc21 (relative stereo)	1 to 50 nM
